# MIC values compiled below
tested on: A. baumannii 14B00100 (Acinetobacter sp., BCRC number 14B0100); conditions: LYM broth, 100 mM NaCl; 16 h, 37 °C
Give the value, in units of µg/mL, as a plain number.

Examples from the recorded data:
SUBSTANCE: Ac-KWLKWLAKKKKWR-NH2 [Peptide W5K04]
MIC, µg/mL: 3.13

SUBSTANCE: Ac-WLAKKKKWRKWLK-NH2 [Peptide W5K08]
MIC, µg/mL: 25

SUBSTANCE: Ac-KWRKWLKWLAKKK-NH2 [Peptide W5K01]
MIC, µg/mL: 3.13

**Q:** Find the measured MIC: item Ac-KWLAKKKKWRKWL-NH2 [Peptide W5K07] , target or system A. baumannii 14B00100 (Acinetobacter sp., BCRC number 14B0100).
**A:** 6.25

**Q:** Find the measured MIC: item Ac-KKWRKWLKWLAKK-NH2 [W5K/A9W] , target or system A. baumannii 14B00100 (Acinetobacter sp., BCRC number 14B0100).
**A:** 1.56

* * *

tested on: Escherichia coli (ATCC 25922); settings: LYM broth, 2.5 mM MgCl2
VALUE KIND: MIC

SUBSTANCE: Ac-WLAKKKKWRKWLK-NH2 [Peptide W5K08]
MIC: 6.25 µg/mL

SUBSTANCE: Ac-WRKWLKWLAKKKK-NH2 [Peptide W5K02]
MIC: 12.5 µg/mL

SUBSTANCE: Ac-RKWLKWLAKKKKW-NH2 [Peptide W5K03]
MIC: 25 µg/mL

SUBSTANCE: Ac-WLKWLAKKKKWRK-NH2 [Peptide W5K05]
MIC: 6.25 µg/mL

SUBSTANCE: Ac-KKWRKWLKWLAKK-NH2 [W5K/A9W]
MIC: 6.25 µg/mL

SUBSTANCE: Ac-AKKKKWRKWLKWL-NH2 [Peptide W5K10]
MIC: 6.25 µg/mL

**Q:** Given the entry Ac-LAKKKKWRKWLKW-NH2 [Peptide W5K09] , report its measured MIC.
**A:** 12.5 µg/mL

**Q:** Given the entry Ac-KKKKWRKWLKWLA-NH2 [Peptide W5K11] , report its measured MIC.
**A:** 3.13 µg/mL

**Q:** Given the entry Ac-KKKWRKWLKWLAK-NH2 [Peptide W5K12] , report its measured MIC.
**A:** 3.13 µg/mL

* * *

Test system: A. baumannii 14B0091 (Acinetobacter sp., BCRC number 14B0091)
Settings: LYM broth, 0 mM NaCl; 16 h, 37 °C
Protocol: The antibacterial and salt-resistant activity of the peptides was tested using Escherichia coli (ATCC 25922), Pseudomonas aeruginosa Migula (ATCC 27853), Acinetobacter sp. […] The inoculum concentrations were determined by measuring the optical density at 600 nm (OD 600 = 1, approximately 10^8 CFU/mL) using an Ultrospec 2100 pro UV-Visible spectrophotometer (Biochrom Ltd., Cambridge, UK) after 8 h of culture. […]
VALUE KIND: MIC
Your reply should be a number followed by the unit it is expressed in.

Examples from the recorded data:
SUBSTANCE: Ac-WLAKKKKWRKWLK-NH2 [Peptide W5K08]
OBSERVED VALUE: 3.13 µg/mL
//
SUBSTANCE: Ac-KWLAKKKKWRKWL-NH2 [Peptide W5K07]
OBSERVED VALUE: 3.13 µg/mL
//
SUBSTANCE: Ac-KKKKWRKWLKWLA-NH2 [Peptide W5K11]
OBSERVED VALUE: 1.56 µg/mL

With those in mind, consider the next substance.
**Q:** Find the measured MIC: item Ac-KWLKWLAKKKKWR-NH2 [Peptide W5K04] , target or system A. baumannii 14B0091 (Acinetobacter sp., BCRC number 14B0091).
**A:** 1.56 µg/mL
